Catalogue of melting point readings, one per entry.
Measured Endpoint: melting point (°C)

1. O=S(=O)(N[C@H]1CC[C@H](CCN2CCN(c3nccc4c3CCO4)CC2)CC1)c1ccc(F)cc1 :: 221
2. O=C(N[C@H]1CC[C@H](CCN2CCN(c3nccc4c3CCO4)CC2)CC1)C1CCC1 :: 202
3. CO[C@H](C)C(=O)N[C@H]1CC[C@H](CCN2CCN(c3nccc4c3CCO4)CC2)CC1 :: 159
4. O=C(N[C@H]1CC[C@H](CCN2CCN(c3nccc4c3CCO4)CC2)CC1)C1CCOC1 (mixture of isomers) :: 208.5
5. O=C(N[C@H]1CC[C@H](CCN2CCN(c3nccc4c3CCO4)CC2)CC1)c1ccc(F)cc1 :: 209.5
6. Cc1cc(CC(=O)N[C@H]2CC[C@H](CCN3CCN(c4nccc5c4CCO5)CC3)CC2)on1 :: 172.5
7. O=C(CCO)N[C@H]1CC[C@H](CCN2CCN(c3nccc4c3CCO4)CC2)CC1 :: 173
8. CC[C@H](O)CC(=O)N[C@H]1CC[C@H](CCN2CCN(c3nccc4c3CCO4)CC2)CC1 :: 158

====

Measured Endpoint: melting point (°C)

1. O=C(N[C@H]1CC[C@H](CCN2CCN(c3nccc4c3CCO4)CC2)CC1)C1CC1 :: 213
2. O=C(N[C@H]1CC[C@H](CCN2CCN(c3nccc4c3CCO4)CC2)CC1)c1ccc(N2CCOCC2)nc1 :: 222
3. CC(C)(C)c1ccc(C(=O)N[C@H]2CC[C@H](CCN3CCN(c4nccc5c4CCO5)CC3)CC2)cc1 :: 186.5
4. O=C(CC1CCC1)N[C@H]1CC[C@H](CCN2CCN(c3nccc4c3CCO4)CC2)CC1 :: 193
5. O=C(N[C@H]1CC[C@H](CCN2CCN(c3nccc4c3CCO4)CC2)CC1)c1ccc(C(F)(F)F)cc1 :: 227
6. CO[C@H]1CC[C@H](CC(=O)N[C@H]2CC[C@H](CCN3CCN(c4nccc5c4CCO5)CC3)CC2)CC1 :: 192.5
7. O=C(N[C@H]1CC[C@H](CCN2CCN(c3nccc4c3CCO4)CC2)CC1)c1ccc(N2CCOCC2)cc1 :: 228.5
8. O=C(N[C@H]1CC[C@H](CCN2CCN(c3nccc4c3CCO4)CC2)CC1)C(O)C(F)(F)F (mixture of isomers) :: 204
9. CC(=O)N[C@H]1CC[C@H](CCN2CCN(c3nccc4c3CCO4)CC2)CC1 :: 260
10. O=C(Cc1ccc2c(c1)OCO2)N[C@H]1CC[C@H](CCN2CCN(c3nccc4c3CCO4)CC2)CC1 :: 212
11. O=C(N[C@H]1CC[C@H](CCN2CCN(c3nccc4c3CCO4)CC2)CC1)c1ccc(Cl)cc1 :: 226.5
12. Cc1cc2occc2c(N2CCN(CC[C@H]3CC[C@H](NC(=O)CC4CCOCC4)CC3)CC2)n1 :: 212.5
13. CC(C)(C)CC(=O)N[C@H]1CC[C@H](CCN2CCN(c3nccc4c3CCO4)CC2)CC1 :: 192.5
14. CC#CC(=O)N[C@H]1CC[C@H](CCN2CCN(c3nccc4c3CCO4)CC2)CC1 :: 193
15. CC[C@@H](O)CC(=O)N[C@H]1CC[C@H](CCN2CCN(c3nccc4c3CCO4)CC2)CC1 :: 161
